Assay: qHTS for Inhibitors of the Functional Ribonucleoprotein Complex (vRNP) of Lassa (LASV) Arenavirus: Viability assay - alamar blue signal for LASV Primary Screen (AID 1347083); also: nearly all actives have a fitted effect of over 80% in size
Conditions: cell viability, alamar blue fluorescence (LASV minigenome counter-screen); series mostly up to 57.5 µM
Records with an inconclusive call do not appear. Calls of active or inactive are those of the source. Calls follow the shape of the full dose curve; tested in HEK293 reporter line.
Classes used: active, inactive

>>> print(df.to_string())
                                 smilesdata  labelvalue
0  O=C(CCCCCCNC(=O)c1cnc(N(c2ccccc2)c2ccccc2)nc1)NO      active
1        COc1ccc(-c2cc(=O)c3ccc(O)cc3o2)cc1    inactive
2  CC(=O)[C@H]1CC[C@H]2[C@@H]3CCC4=CC(=O)CC[C@]4(C)[C@H]3CC[C@]12C    inactive
3  C[C@]12C=CC(=O)C=C1CC[C@@H]1C2=CC[C@]2(C)[C@@H](C(=O)CN3CCN(c4cc(N5CCCC5)nc(N5CCCC5)n4)CC3)CC[C@@H]12    inactive
4                         CCCCCCCCCCOC(C)=O    inactive

---

Experiment: qHTS for Inhibitors of the Functional Ribonucleoprotein Complex (vRNP) of Lymphocytic Choriomeningitis Arenaviruses (LCMV): Viability assay - alamar blue signal for LCMV Primary Screen (AID 1347085); also: nearly all actives have a fitted effect of over 80% in size
Conditions: alamar blue viability counter-screen, LCMV vRNP screen cells; series mostly up to 57.5 µM
Results filed as inconclusive are left out. Active and inactive are the calls of the source. The call rests on the fitted dose curve; tested in HEK293 reporter line.
Outcome codes: label 1 for active, label 0 for inactive

compound	labelValue
C[C@H](NCc1ccc2c(c1)nc(NC(=O)c1ccc(-c3cn[nH]c3)s1)n2CCc1ccccc1)C(C)(C)C	label 1
CCCCCCOC(=O)N=C(N)c1ccc(NCc2nc3cc(C(=O)N(CCC(=O)OCC)c4ccccn4)ccc3n2C)cc1	label 0
O=C(O)Cc1c[nH]c2ccccc12	label 0
CC(C)=CC(=O)O[C@@H]1Cc2cc3ccc(=O)oc3cc2OC1(C)C	label 0
COc1cc(C(=O)O[C@H]2C/C(C)=C/CC/C(C)=C/[C@@H](O)C2C(C)C)ccc1O (stereo partly specified)	label 0
C/C=C1/CN2CC[C@]34C(=C(C=O)[C@H]1C[C@@H]23)Nc1ccccc14	label 0
COc1ccc(-c2oc3ccccc3c(=O)c2O)cc1	label 0
CS(=O)(=O)N(Cc1ccco1)CC(O)Cn1c2ccccc2c2ccccc21 (stereo unspecified)	label 0
C/C=C(\C)C(=O)OC(C)(C)[C@H]1Cc2cc3ccc(=O)oc3cc2O1	label 0
Cc1nc2n(c(=O)c1CCN1CCC(c3noc4cc(F)ccc34)CC1)CCCC2O (stereo unspecified)	label 0
COc1ccc2c3c([nH]c2c1)C(C)NCC3 (stereo unspecified)	label 0
CC(=O)OC/C=C(\C)CCC=C(C)C	label 0
Cc1nc(N=Nc2ccc(S(=O)(=O)O)cc2S(=O)(=O)O)c(COP(=O)(O)O)c(C=O)c1O	label 0
CCCCCCCCCCCC(C)=O	label 0
COc1ccc(CCOC2OC(CO)C(OC(=O)/C=C/c3ccc(O)c(OC)c3)C(O[C@H]3O[C@@H](C)[C@H](O)[C@@H](O)[C@H]3O)C2O)cc1O (stereo partly specified)	label 0
C=CCNc1ncnc2ccc(Br)cc12	label 0
CCCCCCCCC1CCC(=O)O1 (stereo unspecified)	label 0
Cc1nc(C(=O)NCC(=O)O)c(O)c2ccc(Oc3ccccc3)cc12	label 0
COC(=O)[C@@]1(C)CC[C@]2(C)CC[C@@]3(C)C(=CC(=O)C4[C@@]5(C)CC[C@H](O)C(C)(C)[C@@H]5CC[C@]43C)[C@H]2C1 (stereo partly specified)	label 0
CC(C)[C@H](NC(=O)OCc1ccccc1)C(=O)N[C@H](C=O)Cc1ccccc1	label 0
Oc1ccc(C=Cc2cc(O)cc(O)c2)cc1	label 0

Numbers sourced from PubChem BioAssay (NCATS).
